Biological target: human PTH1 receptor (Homo sapiens)
Sequence (Q03431 27-593): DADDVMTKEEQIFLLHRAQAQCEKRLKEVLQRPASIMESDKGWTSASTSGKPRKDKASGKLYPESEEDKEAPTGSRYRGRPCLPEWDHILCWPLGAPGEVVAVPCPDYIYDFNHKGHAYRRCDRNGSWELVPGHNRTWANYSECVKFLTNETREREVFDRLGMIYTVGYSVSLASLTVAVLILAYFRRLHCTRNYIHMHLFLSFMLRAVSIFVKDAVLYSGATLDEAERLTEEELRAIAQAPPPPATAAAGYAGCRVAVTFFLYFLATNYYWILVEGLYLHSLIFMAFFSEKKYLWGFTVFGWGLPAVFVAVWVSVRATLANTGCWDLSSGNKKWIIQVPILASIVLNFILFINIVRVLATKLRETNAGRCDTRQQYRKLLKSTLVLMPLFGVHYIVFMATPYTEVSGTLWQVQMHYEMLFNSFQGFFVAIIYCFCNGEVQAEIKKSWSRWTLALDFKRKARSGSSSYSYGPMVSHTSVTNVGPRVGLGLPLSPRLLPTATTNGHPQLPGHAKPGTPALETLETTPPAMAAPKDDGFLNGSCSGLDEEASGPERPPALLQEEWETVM
Assay: In vitro cAMP signal activity in HKRK-B7 cells (LLC-PK1 cells overexpressing the human PTH1 receptor)
Format: cell-based
Conditions: HKRK-B7 cells; compound at 1×10^−3 M; cAMP produced as percentage of that produced by hPTH(1-34) at 100 nM
Provide the recorded cAMP production activity (%) for the entries that follow.
A bare number is not enough; add the unit after it.

What value of measured cAMP production activity (%) is listed for `Cc1cc(N2C(=O)CC[C@@H]2CO)ccc1CCS(=O)(=O)N1CCC2(CC1)N=C(c1ccc(F)c(C(F)(F)F)c1)NC2=O` ?
89%

Name the reported cAMP production activity (%) value associated with the molecule `Cc1cc(C(=O)N(C)C)ccc1CCS(=O)(=O)N1CCC2(CC1)N=C(c1ccc(C(F)(F)F)cc1F)NC2=O`
64%

Consider the molecule shown here: Cc1cc(CN2C(=O)CNC2=O)cc(C)c1/C=C/S(=O)(=O)N1CCC2(CC1)N=C(C1CCC(CCC(F)(F)F)CC1)NC2=O (stereo not shown) What is its recorded cAMP production activity (%)?
82%

Sample Cc1cc(N2C(=O)CN(C)C2=O)ccc1/C=C/S(=O)(=O)N1CCC2(CC1)N=C(C1CCC(C)CC1)NC2=O (stereo not shown) — what was its cAMP production activity (%)?
61%

Can you share its cAMP production activity (%)? I mean this molecule: `Cc1cc(C(=O)N(C)C)ccc1CCS(=O)(=O)N1CCC2(CC1)N=C(c1cccc(F)c1)NC2=O`
62%

I would be grateful if you could share the reported cAMP production activity (%) for Cc1oc(-c2ccccc2)nc1CC(=O)N1CCCC(C2=NC3(CCN(S(=O)(=O)CCc4cccc5ccccc45)CC3)C(=O)N2)C1 (stereo not shown) .
25%

Item COCCC1CCC(C2=NC3(CCN(S(=O)(=O)CCc4ccc(NC(C)=O)cc4C)CC3)C(=O)N2)CC1 (stereo not shown) has what recorded cAMP production activity (%)?
80%
